Voltage-gated inwardly rectifying potassium channel KCNH2 (Homo sapiens): recorded Ki for assorted compounds
Sequence (Q12809 whole entry): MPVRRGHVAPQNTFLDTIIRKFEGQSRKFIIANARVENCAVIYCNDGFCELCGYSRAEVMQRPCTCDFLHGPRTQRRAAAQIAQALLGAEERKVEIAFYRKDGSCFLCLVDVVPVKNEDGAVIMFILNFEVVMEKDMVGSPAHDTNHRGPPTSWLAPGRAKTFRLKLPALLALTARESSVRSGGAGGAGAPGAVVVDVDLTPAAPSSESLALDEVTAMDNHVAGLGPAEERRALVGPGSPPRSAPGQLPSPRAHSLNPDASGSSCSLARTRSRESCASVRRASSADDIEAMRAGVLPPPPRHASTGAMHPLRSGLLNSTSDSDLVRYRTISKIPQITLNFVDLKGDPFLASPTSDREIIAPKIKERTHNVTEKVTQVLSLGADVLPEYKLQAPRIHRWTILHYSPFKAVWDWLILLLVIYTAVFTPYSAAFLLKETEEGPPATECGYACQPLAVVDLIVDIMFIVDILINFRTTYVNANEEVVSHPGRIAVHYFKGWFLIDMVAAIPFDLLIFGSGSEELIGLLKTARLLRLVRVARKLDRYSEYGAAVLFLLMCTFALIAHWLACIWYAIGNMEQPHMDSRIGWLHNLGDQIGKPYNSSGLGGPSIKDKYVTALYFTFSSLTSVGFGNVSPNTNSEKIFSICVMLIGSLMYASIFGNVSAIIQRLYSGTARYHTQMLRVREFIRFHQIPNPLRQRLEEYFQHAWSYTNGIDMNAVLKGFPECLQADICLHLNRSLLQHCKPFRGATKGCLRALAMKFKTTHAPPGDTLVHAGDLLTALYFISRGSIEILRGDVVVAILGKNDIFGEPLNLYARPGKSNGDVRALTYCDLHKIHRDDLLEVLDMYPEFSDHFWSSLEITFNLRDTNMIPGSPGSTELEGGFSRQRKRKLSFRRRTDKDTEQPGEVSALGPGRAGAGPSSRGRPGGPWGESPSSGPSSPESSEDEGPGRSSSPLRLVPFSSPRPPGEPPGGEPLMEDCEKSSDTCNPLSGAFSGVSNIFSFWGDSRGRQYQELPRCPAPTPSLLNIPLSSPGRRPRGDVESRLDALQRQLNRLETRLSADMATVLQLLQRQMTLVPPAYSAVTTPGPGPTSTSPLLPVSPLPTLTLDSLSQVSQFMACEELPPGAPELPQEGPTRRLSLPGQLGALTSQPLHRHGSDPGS

>  <Compound>
Cc1ncoc1-c1nnc(SCCCN2CCOC(c3ccc(F)cc3)C2)n1C (stereo in doubt; 7)

>  <Ki>
3160 nM

$$$$
>  <Compound>
Cn1c(SCCCN2CCOC(c3ccc(C(F)(F)F)cc3)C2)nnc1-c1ccc(-c2ncco2)cc1 (stereo in doubt; 34)

>  <Ki>
1260 nM

$$$$
>  <Compound>
Cc1ncoc1-c1nnc(SCCCCN2CCOC(c3ccc(C(F)(F)F)cc3)C2)n1C (stereo in doubt; 11)

>  <Ki>
2510 nM

$$$$
>  <Compound>
Cc1ccc(C2CN(CCCSc3nnc(-c4ccc(-c5noc(C)n5)cc4)n3C)CCO2)cc1 (racemic)

>  <Ki>
1000 nM

$$$$
>  <Compound>
Cn1c(SCCCN2CCOC(c3ccc(C(F)(F)F)cc3)C2)nnc1-c1ccc(C(N)=O)cc1 (racemic)

>  <Ki>
5010 nM

$$$$
>  <Compound>
Cn1c(SCCCN2CCOC(c3ccc(C(F)(F)F)cc3)C2)nnc1-c1ccc(C(N)=O)nc1 (racemic)

>  <Ki>
2000 nM

$$$$
>  <Compound>
Cn1c(SCCCN2CCOC(c3ccc(C(F)(F)F)cc3)C2)nnc1-c1ccc(C(N)=O)cc1 (stereo in doubt; 26)

>  <Ki>
6310 nM

$$$$
>  <Compound>
Cc1ncoc1-c1nnc(SCCCN2CCOC(c3ccc(C(F)(F)F)cc3)C2)n1C (stereo in doubt; 9)

>  <Ki>
3160 nM

$$$$
>  <Compound>
Cn1c(SCCCN2CCOC(c3ccc(C(F)(F)F)cc3)C2)nnc1-c1ccc(-c2ncco2)cc1 (racemic)

>  <Ki>
1000 nM

$$$$

====

Experimental system: D(1A) dopamine receptor (Homo sapiens)
Sequence (P21728 whole entry): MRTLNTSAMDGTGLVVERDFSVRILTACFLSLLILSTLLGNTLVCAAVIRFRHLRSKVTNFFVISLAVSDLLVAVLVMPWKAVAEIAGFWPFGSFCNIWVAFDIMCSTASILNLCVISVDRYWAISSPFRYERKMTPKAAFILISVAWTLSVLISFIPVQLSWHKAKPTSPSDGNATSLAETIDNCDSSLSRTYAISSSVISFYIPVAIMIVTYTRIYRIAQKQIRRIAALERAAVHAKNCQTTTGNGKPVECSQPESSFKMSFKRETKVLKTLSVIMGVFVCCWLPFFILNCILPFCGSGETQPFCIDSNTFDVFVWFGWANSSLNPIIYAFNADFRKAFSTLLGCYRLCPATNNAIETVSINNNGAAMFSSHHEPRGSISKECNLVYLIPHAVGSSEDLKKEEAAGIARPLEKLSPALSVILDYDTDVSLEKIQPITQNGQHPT
Experiment summary: Binding affinity to dopamine D1 receptor (unknown origin)

>  <Molecule>
Cc1ncoc1-c1nnc(SCCCN2CCOC(c3ccc(C(F)(F)F)cc3)C2)n1C (stereo in doubt; 9)

>  <Ki>
> 100 µM

$$$$

====

Experiment summary: Hepatic extraction ratio in portal vein-cannulated rat
Assay type: ADME, organism-based
Measurement conditions: in vivo, read-out: ERH

>  <Molecule>
Cc1ncoc1-c1nnc(SCCCN2CCOC(c3ccc(F)cc3)C2)n1C (stereo in doubt; 7)

>  <hepatic extraction ratio>
0.1

$$$$

====

UniProt:P10635: recorded IC50 for assorted molecules
Sequence (P10635 whole entry): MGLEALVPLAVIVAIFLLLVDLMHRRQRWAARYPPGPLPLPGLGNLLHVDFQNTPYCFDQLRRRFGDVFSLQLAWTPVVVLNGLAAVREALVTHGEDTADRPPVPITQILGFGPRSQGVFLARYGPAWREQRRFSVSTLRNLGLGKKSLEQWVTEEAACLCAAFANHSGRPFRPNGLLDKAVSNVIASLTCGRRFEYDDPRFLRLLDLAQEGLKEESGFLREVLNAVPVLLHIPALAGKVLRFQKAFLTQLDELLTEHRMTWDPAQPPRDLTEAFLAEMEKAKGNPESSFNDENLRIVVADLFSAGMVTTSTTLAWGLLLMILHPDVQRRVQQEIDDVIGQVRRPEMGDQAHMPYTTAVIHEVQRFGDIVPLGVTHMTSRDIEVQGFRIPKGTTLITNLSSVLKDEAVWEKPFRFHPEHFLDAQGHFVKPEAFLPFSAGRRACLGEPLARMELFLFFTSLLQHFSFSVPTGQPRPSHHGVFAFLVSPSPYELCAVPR
Recorded endpoint: IC50

>  <Molecule>
Cn1c(SCCCN2CCOC(c3ccc(C(F)(F)F)cc3)C2)nnc1-c1ccc(C(N)=O)cc1 (stereo in doubt; 26)

>  <Recorded endpoint>
IC50

>  <Measured>
> 30 µM

$$$$
>  <Molecule>
Cc1ncoc1-c1nnc(SCCCN2CCOC(c3ccc(F)cc3)C2)n1C (stereo in doubt; 7)

>  <Recorded endpoint>
IC50

>  <Measured>
> 30 µM

$$$$
>  <Molecule>
Cc1ncoc1-c1nnc(SCCCN2CCOC(c3ccc(C(F)(F)F)cc3)C2)n1C (stereo in doubt; 9)

>  <Recorded endpoint>
IC50

>  <Measured>
> 6 µM

$$$$
>  <Molecule>
Cn1c(SCCCN2CCOC(c3ccc(C(F)(F)F)cc3)C2)nnc1-c1ccc(-c2ncco2)cc1 (stereo in doubt; 34)

>  <Recorded endpoint>
IC50

>  <Measured>
> 3 µM

$$$$

====

Measured IC50, listed per entry.
Experimental system: Cytochrome P450 3A4 (Homo sapiens, UniProt P08684)
Sequence (P08684 whole entry): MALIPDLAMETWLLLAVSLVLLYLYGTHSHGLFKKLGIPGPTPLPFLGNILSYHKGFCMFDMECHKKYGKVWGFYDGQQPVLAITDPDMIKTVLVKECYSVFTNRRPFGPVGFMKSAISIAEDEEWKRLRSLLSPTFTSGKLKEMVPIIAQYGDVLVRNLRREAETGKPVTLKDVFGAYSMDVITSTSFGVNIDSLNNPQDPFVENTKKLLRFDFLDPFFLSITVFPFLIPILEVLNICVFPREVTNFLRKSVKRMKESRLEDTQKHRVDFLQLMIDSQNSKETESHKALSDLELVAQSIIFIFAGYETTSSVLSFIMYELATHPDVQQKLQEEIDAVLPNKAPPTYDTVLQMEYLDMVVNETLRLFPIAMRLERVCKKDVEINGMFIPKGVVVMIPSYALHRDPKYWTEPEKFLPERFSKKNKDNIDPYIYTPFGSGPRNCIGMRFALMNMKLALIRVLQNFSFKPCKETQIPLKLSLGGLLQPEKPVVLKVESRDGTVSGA
Experiment summary: Inhibition of human CYP3A4 expressed in bactosome using DBOMF as substrate
Type: ADME
Recorded endpoint: IC50

>  <Molecule>
Cn1c(SCCCN2CCOC(c3ccc(C(F)(F)F)cc3)C2)nnc1-c1ccc(-c2ncco2)cc1 (stereo in doubt; 34)

>  <Measured>
> 3 µM

$$$$
>  <Molecule>
Cc1ncoc1-c1nnc(SCCCN2CCOC(c3ccc(F)cc3)C2)n1C (stereo in doubt; 7)

>  <Measured>
> 30 µM

$$$$
>  <Molecule>
Cn1c(SCCCN2CCOC(c3ccc(C(F)(F)F)cc3)C2)nnc1-c1ccc(C(N)=O)cc1 (stereo in doubt; 26)

>  <Measured>
> 30 µM

$$$$
>  <Molecule>
Cc1ncoc1-c1nnc(SCCCN2CCOC(c3ccc(C(F)(F)F)cc3)C2)n1C (stereo in doubt; 9)

>  <Measured>
> 6 µM

$$$$
